For each of the binders below, state its Rel. active concentration [%].
Target: T1, biotinylated anti-human CD3 IgG (anti-CD3 P035.093) (biotinylated (site not stated))
T1 construct: IgG format of this reagent is not described further; immobilised on a CAP chip; also called CD3 IgG (P035.093)
T1 sequence (VH, as listed by the source, chain 1 of 2): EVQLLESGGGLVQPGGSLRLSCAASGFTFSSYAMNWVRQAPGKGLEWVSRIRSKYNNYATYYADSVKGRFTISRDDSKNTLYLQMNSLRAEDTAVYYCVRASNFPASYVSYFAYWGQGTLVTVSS
T1 sequence (VL, as listed by the source, chain 2 of 2): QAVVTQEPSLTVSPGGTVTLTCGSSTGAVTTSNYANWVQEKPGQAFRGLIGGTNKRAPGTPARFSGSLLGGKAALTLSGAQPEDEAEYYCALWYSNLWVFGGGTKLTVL
Test: SPR; biotinylated anti-CD3 P035.093 IgG on CAP chip, anti-idiotypic IgG at 1 µg/ml; response normalised to anti-human IgG surface and to the unstressed sample; after 14 d at 40 °C pH 6.0
Protocol: Flow cell 1 was kept as mock surface. […] Dissociation was monitored for 30 s, the flow rate was set to 5 μl/min. The CAP chip was regenerated by injecting a mix of NaOH and Guadinium-hydrochloride for 120 s, provided in the biotin capture kit. Bulk refractive index differences were corrected by subtracting the response obtained from flow cell 1 (mock surface).
Numbers only, in %.

Check out these entries, answers already filled in.
1. Humanized variant H1L2 of anti-idiotypic antibody 4.24.72 (IgG) (antibody, V domains shown, Produced and purified as IgG; also called Mask humanization variant H1L2) VH: QVQLVQSGSELKKPGASVKVSCKASGYTVTDYSMNWVRQAPGQGLEWMGWINTETGEPRYTDDFKGRFVFSLDTSVSTAYLQISSLKAEDTAVYYCAREGDYDVFDYWGQGTLVTVSS VL: DIVMTQSPDSLAVSLGERATINCKSSKSVSTSSYSYMHWYQQKPGQPPKLLIKYVSYLESGVPDRFSGSGSGTDFTLTISSLQAEDVAVYYCQHSREFPYTFGQGTKLEIK    97
2. Humanized variant H2L2 of anti-idiotypic antibody 4.24.72 (IgG) (antibody, V domains shown, Produced and purified as IgG; also called Mask humanization variant H2L2) VH: QVQLVQSGSELKKPGASVKVSCKASGYTVTDYSMNWVRQAPGQGLEWMGWINTETGEPRYTDDFTGRFVFSLDTSVSTAYLQISSLKAEDTAVYYCAREGDYDVFDYWGQGTLVTVSS VL: DIVMTQSPDSLAVSLGERATINCKSSKSVSTSSYSYMHWYQQKPGQPPKLLIKYVSYLESGVPDRFSGSGSGTDFTLTISSLQAEDVAVYYCQHSREFPYTFGQGTKLEIK    98
3. Humanized variant H3L2 of anti-idiotypic antibody 4.24.72 (IgG) (antibody, V domains shown, Produced and purified as IgG; also called Mask humanization variant H3L2) VH: QVQLVQSGSELKKPGASVKVSCKASGYTVTDYSMNWVRQAPGQGLEWMGWINTETGEPRYTQGFKGRFVFSLDTSVSTAYLQISSLKAEDTAVYYCAREGDYDVFDYWGQGTLVTVSS VL: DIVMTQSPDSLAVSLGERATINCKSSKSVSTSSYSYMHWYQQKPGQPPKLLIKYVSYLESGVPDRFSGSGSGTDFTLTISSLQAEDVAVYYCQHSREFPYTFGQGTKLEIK    97

Then this binder:
*Q* Give the measured Rel. active concentration [%] of Humanized variant H7L5 of anti-idiotypic antibody 4.24.72 (IgG) (antibody, V domains shown, Produced and purified as IgG; also called Mask humanization variant H7L5) VH: QVQLVQSGAEVKKPGASVKVSCKASGYTVTDYSMNWVRQAPGQGLEWMGWINTETGEPRYTDDFKGRVTMTRDTSISTAYMELSRLRSDDTAVYYCAREGDYDVFDYWGQGTLVTVSS VL: DIVMTQSPDSLAVSLGERATINCRASKSVSTSSYSYMHWYQQKPGQPPKLLIYYVSYLESGVPDRFSGSGSGTDFTLTISSLQAEDVAVYYCQHSREFPYTFGQGTKLEIK .
*A* 98
